Attribute: MIC E. coli NCTC9001
Tested on: Escherichia coli
EXPERIMENTAL_DETAILS: MIC, compound in combination with a second agent (broth microdilution)
Type: cell-based
CONDITION: 1:1 (wt:wt) combination with Rifampicin; MIC = total drug concentration; strain NCTC9001
Counter-ions that a name gives are not always drawn. Bridge positions count the residues as written; N and C are the ends. Square brackets hold non-standard residues; d marks the D form. Peptide text beside a SMILES is read from it. * marks the point of attachment. ξ: configuration not given here. X8 = N[C@@H]1CC[C@H](C(=O)*)C1; Thr(3ξ) = CC(O)[C@H](N)C(=O)O; X13 = O=C(CC[C@@H]1CCCN1)*; Dab = NCC[C@H](N)C(=O)O

>  <COMPOUND>
CC(C)C[C@@H]1NC(=O)[C@@H](Cc2ccccc2)NC(=O)[C@H](CCN)NC(=O)[C@@H](NC(=O)[C@H](CCN)NC(=O)[C@@H](NC(=O)CC[C@@H]2CCCN2)C(C)O)CCNC(=O)[C@H](C(C)O)NC(=O)[C@H](CCN)NC(=O)[C@H](CCN)NC1=O (some centres unmarked) [Example 23] (X13-[Thr(3ξ)][Dab][Dab][Dab][dF]L[Dab][Dab][Thr(3ξ)]; lactam 3-C)

>  <MIC E. coli NCTC9001 [micrograms/mL]>
0.25

$$$$
>  <COMPOUND>
CC(C)C[C@@H]1NC(=O)[C@@H](Cc2ccccc2)NC(=O)[C@H](CCN)NC(=O)[C@@H](NC(=O)[C@H](CCN)NC(=O)[C@@H](NC(=O)[C@H]2CC[C@@H](N)C2)C(C)O)CCNC(=O)[C@H](C(C)O)NC(=O)[C@H](CCN)NC(=O)[C@H](CCN)NC1=O (some centres unmarked) [Example 34A, trifluoroacetate salt] (X8-[Thr(3ξ)][Dab][Dab][Dab][dF]L[Dab][Dab][Thr(3ξ)]; lactam 3-C)

>  <MIC E. coli NCTC9001 [micrograms/mL]>
0.125

$$$$
